Values were extracted from patent US20250296938A1.

test system: KRas G12C mutant; assay: Ras GTP binding domain inhibition assay (Cy3-GTP/Cy5-GTP competition); set-up: species or system human; conditions: 20 μM; with SOS
readout_type: KRas G12C mutant + SOS: % inh.

Example entries begin here.
Find the measured KRas G12C mutant + SOS: % inh.: item COc1c(O)nc(-c2ccccn2)nc1Oc1ccc2ncccc2c1 [drawing 804] , target or system KRas G12C mutant.
C (51-75% inhibition)

Next up: COCCNc1nc(-c2nccn2C)nc2sc(-c3cc(OC)ccc3Cl)c(-c3ccccc3)c12 [drawing 871]
A (1-25% inhibition)

Next up: COCCNc1nc(-c2cn(C)cn2)nc2sc(-c3ccccc3Cl)c(-c3ccc(OC)cc3)c12 [drawing 873]
D (76-100% inhibition)

Next up: Oc1nc(-c2ncc3ccccn23)nc2c(-c3ccccn3)csc12 [drawing 834]
C (51-75% inhibition)

Next up: Oc1nc(-c2cn3cccnc3n2)nc2c(-c3ccccn3)csc12 [drawing 848]
A (1-25% inhibition)

For every item below, please supply its KRas G12C mutant + SOS: % inh..
1. COCCNc1nc(-c2nccn2C)nc2sc(-c3cccc(OC)c3Cl)c(-c3ccccc3)c12 [drawing 872]
2. COC1CCN(c2nc(-c3nccn3C)nc3sc(-c4ccnc(N(C)C)c4)c(-c4ccccc4)c23)C1.Cl (stereo not drawn)
3. COCCN(C)C(=O)c1nc(-c2ccccn2)nc(O)c1O [drawing 810]
4. COCC(C)Nc1nc(-c2nccn2C)nc2sc(-c3cccc(OC)c3)c(-c3cscn3)c12 (stereo not drawn) [drawing 855]
5. COc1cccc(Cn2ccnc2-c2nc(O)c3scc(-c4ccccn4)c3n2)c1 [drawing 850]
6. CCN(CC)C(=O)c1nc(-c2nccn2C)nc(O)c1O [drawing 829]

1. D (76-100% inhibition)
2. D (76-100% inhibition)
3. A (1-25% inhibition)
4. D (76-100% inhibition)
5. D (76-100% inhibition)
6. A (1-25% inhibition)

====

Can you tell me inhibition at 20 µM for the items I'm about to list?
target: Rho-A (Homo sapiens); experiment: Ras GTP binding domain inhibition assay (Cy3-GTP/Cy5-GTP competition); settings: without SOS, read-out: Rho-A: % inh.
Sequence (P61586 1-190): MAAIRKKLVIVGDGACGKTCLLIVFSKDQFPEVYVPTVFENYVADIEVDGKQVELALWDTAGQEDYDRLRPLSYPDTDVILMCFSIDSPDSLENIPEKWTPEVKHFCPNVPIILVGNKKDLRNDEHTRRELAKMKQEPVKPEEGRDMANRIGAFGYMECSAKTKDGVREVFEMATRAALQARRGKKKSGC

Example entries begin here.
Find the measured inhibition at 20 µM: item COCCn1ccnc1-c1nc(O)c2scc(-c3ccccn3)c2n1 [drawing 987] , target or system Rho-A (Homo sapiens).
51 to 75%

Next up: O=C(NC1CCC1)c1nc(-c2ccccn2)nc(O)c1O [drawing 944]
51 to 75%

Next up: Oc1nc(-c2cn3ccccc3n2)nc2c(-c3ccccn3)csc12 [drawing 951]
1 to 25%

For every item below, please supply its inhibition at 20 µM.
1. O=C(NC1CCCC1)c1nc(-c2ccccn2)nc(O)c1O [drawing 947]
2. CO[C@H]1CC[C@@H](Nc2nc(-c3nccn3C)nc3sc(C(=O)NC(C)C)c(-c4ccccc4)c23)C1 [drawing 1059]
3. COc1c(O)nc(-c2ccccn2)nc1Nc1ccccc1 [drawing 1015]
4. COCCNc1nc(-c2nccn2C)nc2sc(-c3cccc(OC)c3Cl)c(-c3ccccc3)c12 [drawing 1007]
5. COC1CCN(c2nc(-c3nccn3C)nc3sc(-c4cccnc4)c(-c4ccccc4)c23)C1 (stereo not shown) [drawing 979]
6. CO[C@H]1C[C@@H](Nc2nc(-c3nccn3C)nc3sc(-c4ccn(C)n4)c(C)c23)C1 [drawing 1049]

["51 to 75%", "76 to 100%", "51 to 75%", "51 to 75%", "51 to 75%", "76 to 100%"]

For every item below, please supply its inhibition at 20 µM.
1. Oc1nc(-c2ncc3ccccn23)nc2c(-c3ccccn3)csc12 [drawing 969]
2. COCCNc1nc(-c2nccn2C)nc2sc(-c3cc(OC)ccc3Cl)c(-c3ccc(OC)cc3)c12 [drawing 1012]
3. Cc1cc(Cn2ccnc2-c2nc(O)c3scc(-c4ccccn4)c3n2)on1 [drawing 981]
4. Cn1ccnc1-c1nc(O)c(O)c(C(=O)NC2CCCC2)n1 [drawing 962]
5. Cn1ccc(-c2sc3nc(-c4nccn4C)nc(NC4CCOCC4)c3c2-c2ccccc2)n1 [drawing 997]

1. 76 to 100%
2. 26 to 50%
3. 1 to 25%
4. 26 to 50%
5. 0%

For every item below, please supply its inhibition at 20 µM.
1. Cn1ccc(-c2sc3nc(-c4nccn4C)nc(NCC4CCOC4)c3c2-c2ccccc2)n1 (stereo not shown) [drawing 996]
2. CC(C)CN(C)C(=O)c1nc(-c2ccccn2)nc(O)c1O [drawing 933]

["26 to 50%", "26 to 50%"]
